The reported measurements were obtained from ChEMBL document CHEMBL4002647.

assay: Fraction unbound in mouse plasma at 10 uM after 4 hrs by equilibrium dialysis method; type: ADME, cell-free
metric.name: fraction unbound at 4 h, 10 µM

>>> readout_value("c1cn(-c2cc(NC3=NC[C@@]4(CN5CCC4CC5)O3)ncn2)cn1")
0.84
>>> readout_value("c1ccc2cc(NC3=NC[C@@]4(CN5CCC4CC5)O3)ncc2c1")
0.23

###

Molecular target: UniProt:P20813
Sequence (P20813 whole entry): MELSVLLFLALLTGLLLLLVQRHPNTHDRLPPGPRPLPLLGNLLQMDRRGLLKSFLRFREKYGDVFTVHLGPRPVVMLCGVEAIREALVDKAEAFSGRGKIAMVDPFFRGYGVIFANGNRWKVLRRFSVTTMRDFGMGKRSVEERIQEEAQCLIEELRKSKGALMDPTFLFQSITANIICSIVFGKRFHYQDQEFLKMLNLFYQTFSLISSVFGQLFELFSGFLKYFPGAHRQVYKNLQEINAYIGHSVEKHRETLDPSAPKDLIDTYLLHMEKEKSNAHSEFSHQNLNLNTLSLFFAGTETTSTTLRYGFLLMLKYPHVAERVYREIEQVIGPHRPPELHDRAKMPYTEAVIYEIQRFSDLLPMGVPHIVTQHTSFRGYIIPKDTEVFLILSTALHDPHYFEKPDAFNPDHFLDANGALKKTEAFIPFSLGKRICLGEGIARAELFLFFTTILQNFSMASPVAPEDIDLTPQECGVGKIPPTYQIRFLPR
Test: Inhibition of recombinant human CYP2B6 using fluorogenic substrate preincubated for 30 mins and measured after 20 to 60 mins in presence of NADPH regenerating system by fluorescence assay
Assay type: ADME
Details: human, recombinant CYP2B6, probe fluorogenic substrate (not named)
pIC50: −log10 of the molar value.
metric.name: pIC50

>>> readout_value("c1ccc2cc(NC3=NC[C@@]4(CN5CCC4CC5)O3)ncc2c1")
"< 4.40"

###

experiment: Oral bioavailability in cynomolgus monkey at 5 mg/kg; format: ADME, organism-based, Macaca fascicularis; conditions: in vivo
metric.name: bioavailability (%)

>>> readout_value("c1cn(-c2cc(NC3=NC[C@@]4(CN5CCC4CC5)O3)ncn2)cn1")
70

###

assay: Volume of distribution at steady state in dog at 1 mg/kg, iv administered as 5 mins infusion; assay type: ADME, organism-based, Canis lupus familiaris; details: in vivo, read-out: Vdss
metric.name: Vd (L/kg)

>>> readout_value("c1cn(-c2cc(NC3=NC[C@@]4(CN5CCC4CC5)O3)ncn2)cn1")
5.5

###

test: AUC in rat at 10 mg/kg, po; type: ADME, organism-based; conditions: in vivo
metric.name: AUC (µM·h)

>>> readout_value("c1cn(-c2cc(NC3=NC[C@@]4(CN5CCC4CC5)O3)ncn2)cn1")
7.2

###

Target: CYP1A2 (Homo sapiens, UniProt P05177)
Sequence (P05177 whole entry): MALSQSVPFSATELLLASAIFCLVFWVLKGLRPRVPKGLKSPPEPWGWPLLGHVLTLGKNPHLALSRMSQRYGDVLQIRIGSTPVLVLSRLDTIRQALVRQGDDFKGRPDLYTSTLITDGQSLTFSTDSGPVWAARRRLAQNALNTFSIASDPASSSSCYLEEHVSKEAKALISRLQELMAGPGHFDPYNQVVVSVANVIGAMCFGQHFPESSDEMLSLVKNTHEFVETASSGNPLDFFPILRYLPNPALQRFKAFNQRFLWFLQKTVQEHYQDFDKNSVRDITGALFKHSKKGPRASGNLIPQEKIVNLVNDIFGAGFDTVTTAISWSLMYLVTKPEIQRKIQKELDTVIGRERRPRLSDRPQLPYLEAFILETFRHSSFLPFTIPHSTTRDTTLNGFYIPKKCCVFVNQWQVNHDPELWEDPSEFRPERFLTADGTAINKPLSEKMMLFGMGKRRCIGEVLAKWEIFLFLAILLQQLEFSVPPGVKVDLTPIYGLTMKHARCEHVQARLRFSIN
Assay: Inhibition of recombinant human CYP1A2 using fluorogenic substrate preincubated for 30 mins and measured after 20 to 60 mins in presence of NADPH regenerating system by fluorescence assay
Format: ADME
Settings: recombinant CYP1A2, probe fluorogenic substrate (not named)
metric.name: IC50

>>> readout_value("c1ccc2cc(NC3=NC[C@@]4(CN5CCC4CC5)O3)ncc2c1")
"> 40 µM"
